Conditions used: human;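 note: steatosis confirmed by histopathology, value is the count of indexed references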
Reported endpoint: Hepatotoxicity (steatosis)
Just the number, please, no unit attached.

These solved cases illustrate the format of a correct answer.
CCN1C(=O)NC(c2ccccc2)C1=O (centres undefined)
0
COc1ccc(Cl)cc1C(=O)NCCc1ccc(S(=O)(=O)NC(=O)NC2CCCCC2)cc1 [GLYBURIDE]
0
N[C@H](C(=O)O)[C@@H]1CC(Cl)=NO1
0

Let us examine a further case.
Request: Find the measured Hepatotoxicity (steatosis) of `CC(=O)Nc1ccc(O)cc1` and report it.
Result: 1

###

Conditions used: human
Listed below: Hepatotoxicity (steatosis) values for each entry.
The response must contain the number and no unit.

Worked cases, answers included:
CC(=O)OCC(=O)NCCCOc1cccc(CN2CCCCC2)c1 [ROXATIDINE ACETATE]
0
CCc1oc2ccccc2c1C(=O)c1cc(I)c(O)c(I)c1
0
CO[C@@]1(NC(=O)C2SC(=C(C(N)=O)C(=O)O)S2)C(=O)N2C(C(=O)O)=C(CSc3nnnn3C)CS[C@@H]21 (some centres undefined)
0
O=C(CCBr)N1CCN(C(=O)CCBr)CC1
0

Request: Let me know recorded Hepatotoxicity (steatosis) for `CN(C)CCOc1ccc(/C(=C(/CCCl)c2ccccc2)c2ccccc2)cc1` , thanks.
Result: 1

Request: Note down Hepatotoxicity (steatosis) recorded for CN1CCCN(C(c2ccccc2)c2ccc(Cl)cc2)CC1 (centres undefined)
Result: 0

All values here come from ChEMBL document CHEMBL3137667.
